Give Papp A→B at 0.1 mg/mL for every item shown.
assay: Bidirectional transport of SKE and RAI in Caco-2 cell monolayer model; format: in vitro ADME, human; conditions: human, Caco-2, Papp(A-B), in SKE, 0.1 mg/mL; Caco-2, AP-BL; mean ± SD, n = 3
Numbers only, in ×10⁻⁶ cm/s.

Known results for compounds:
Cc1cc(O)c2c(c1)C(=O)c1cccc(O)c1C2=O: 6.63
O=C(O)c1cc(O)c2c(c1)C(=O)c1cccc(O)c1C2=O: 31
Cc1cc(O)c2c(c1)C(=O)c1cc(O)cc(O)c1C2=O: 6.24

Here is the next item to consider.
Data request, read-out Papp A→B at 0.1 mg/mL, for `O=C1c2cccc(O)c2C(=O)c2c(O)cc(CO)cc21`
17.6
